Every entry's value here was drawn from patent US20260209362A1.

TARGET: T1, biotinylated recombinant human IL-12Rβ2 (human, UniProt Q99665 24-622, random biotinylated)
T1 construct: Recombinant protein produced in-house; also called hIL-12RB2; human IL-12RB2
T1 sequence: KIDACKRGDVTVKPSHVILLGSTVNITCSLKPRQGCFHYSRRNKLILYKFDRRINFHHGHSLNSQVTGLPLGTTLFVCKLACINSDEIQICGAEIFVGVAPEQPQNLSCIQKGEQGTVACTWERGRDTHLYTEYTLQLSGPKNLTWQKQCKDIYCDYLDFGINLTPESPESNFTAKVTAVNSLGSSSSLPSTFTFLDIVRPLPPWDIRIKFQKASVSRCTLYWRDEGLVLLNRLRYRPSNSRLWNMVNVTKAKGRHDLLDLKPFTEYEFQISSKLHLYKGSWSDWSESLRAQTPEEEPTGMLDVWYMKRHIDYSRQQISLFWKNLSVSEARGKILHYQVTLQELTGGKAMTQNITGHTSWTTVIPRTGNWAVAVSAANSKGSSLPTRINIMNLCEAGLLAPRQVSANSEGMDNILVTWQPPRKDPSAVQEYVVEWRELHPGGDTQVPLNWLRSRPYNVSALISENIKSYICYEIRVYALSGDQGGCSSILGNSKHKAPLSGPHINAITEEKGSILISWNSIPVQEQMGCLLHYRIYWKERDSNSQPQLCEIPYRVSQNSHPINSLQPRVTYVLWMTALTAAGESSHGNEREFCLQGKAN
ASSAY PROTOCOL: ELISA, P.E., biotinylated antigen
Below is a list of entries, each paired with its recorded ELISA hIL-12RB2/control value.

The binder listed as anti-IL-12Rβ2 VHH clone 3CRH45 (clone ID 20383) (VHH, not shown: small tags and cut ends, periplasmic extract) VHH: QVQLQESGGGLVQPGGSLRLSCAASGFTFSTFGMHWFRQAPGKGLEWVSSIGIIDDNSYYASSVKGRFTISRDNAKNTLYLQMNSLKSEDTAVYYCSKDTTGSSRGQGTQVTVSS shows ELISA hIL-12RB2/control equal to 4.58

Next binder, please.
The binder listed as anti-IL-12Rβ2 VHH clone 2CRH41 (clone ID 20365) (VHH, not shown: small tags and cut ends, periplasmic extract) VHH: QVQLQESGGGLVQPGGSLRLSCTASGFAFSSYWMYWVRQSPEKGFEWVSVVDTDGGITYYADSVKGRFTISRDNAKNTLYLQMNSLKPQDTALYYCARDRTTLEYTRTYYRTGQGTQVTVSS has a reported ELISA hIL-12RB2/control of 3.8
